- Tested on: CHO-K1
- experiment-notes: Inhibition of spermidine uptake in chinese hamster CHO-K1 cells assessed as decrease in cell growth by measuring cellular ATP content measured after 48 hrs in presence of DFMO and spermidine by ATPlite assay
- details: Cricetulus griseus, CHO-K1, 48 h
Would you mind telling me the reported EC50 of each entry?
One number for each entry, in µM.

Use the examples below as a reference point.
| mol-smiles | EC50 [µM] |
| --- | --- |
| COc1ccccc1N1CCN(c2ccc(N3C(=O)CCC3=O)cc2[N+](=O)[O-])CC1 | 30 |
| COc1ccccc1C(=O)Nc1ccc(N2CCC(c3ccccc3)CC2)cc1C(=O)O | 21 |
| COc1ccc(C(=O)Nc2ccc(N3CCN(c4ccccc4)CC3)cc2C(=O)O)cc1 | 15 |
| Cc1ccc(C(=O)Nc2ccc(N3CCN(c4cc(Cl)ccc4C)CC3)c(C(=O)O)c2)cc1 | 5 |
| COc1ccccc1C(=O)Nc1ccc(N2CCC(Oc3ccccc3)CC2)cc1C(=O)O | 19 |

List the reported EC50 of each compound below.
1. Cc1cccc(N2CCN(c3ccc(NC(=O)c4cccc(Cl)c4)c(C(=O)O)c3)CC2)c1C
2. COc1ccc(C(=O)Nc2ccc(N3CCN(c4ccc(C(C)=O)cc4)CC3)cc2C(=O)O)cc1
3. COc1ccccc1C(=O)Nc1ccc(N2CCN(Cc3ccccn3)CC2)cc1C(=O)O
4. COc1ccc(N2CCN(c3ccc(NC(=O)C4CCCCC4)cc3C#N)CC2)cc1
5. COc1ccc(C(=O)Nc2ccc(N3CCN(c4cc(Cl)ccc4C)CC3)cc2C(=O)O)cc1

8
21
10
23
8

====

- experiment-notes: Cytotoxicity against human L3.6pl cells assessed as inhibition of cell growth measured after 72 hrs by ATPlite assay
- Type: toxicity, cell-based
experimental-endpoint: IC50 at 72 h (µM)
Numbers only, in µM.

| mol-smiles | scale-unit | IC50 at 72 h |
| --- | --- | --- |
| COc1ccccc1C(=O)Nc1ccc(N2CCN(c3cccc(C)c3C)CC2)cc1C(=O)O | µM | 22.9 |

List the reported IC50 at 72 h of each compound below.
1. COc1ccccc1C(=O)Nc1ccc(N2CCN(c3cc(Cl)ccc3C)CC2)cc1C(=O)O
2. COc1ccc(C(=O)Nc2ccc(N3CCN(c4cc(Cl)ccc4C)CC3)cc2C(=O)O)c(OC)c1
3. COc1ccccc1C(=O)Nc1ccc(N2CCC(Oc3ccccc3)CC2)cc1C(=O)O
4. COc1ccc(C(=O)Nc2ccc(N3CCN(c4cc(Cl)ccc4C)CC3)cc2C(=O)O)cc1

1. 29.1
2. 61.6
3. 38.6
4. 16.8

====

- Tested on: CHO-K1
- experiment-notes: Cytotoxicity against chinese hamster CHO-K1 cells assessed as decrease in cell viability measured after 48 hrs by ATPlite assay
- Assay type: toxicity, cell-based, Cricetulus griseus
- details: cho-k1, 48 h
Class membership depends on MTC alone; the intervals are lowest: < 20 µM; middle: ≥ 20 µM and < 30 µM; highest: ≥ 30 µM

Consider the following illustrative entries.
| compound | label |
| --- | --- |
| CCOC(=O)N1CCN(c2ccc(NC(=O)c3ccc(OC)cc3)c(C(=O)O)c2)CC1 | highest |
| COc1ccccc1C(=O)Nc1ccc(N2CCC(Oc3ccccc3)CC2)cc1C(=O)O | highest |
| COc1ccccc1N1CCN(c2ccc(N3C(=O)CCC3=O)cc2[N+](=O)[O-])CC1 | middle |

Next, consider the following compound.
Please indicate the class for COc1ccccc1C(=O)Nc1ccc(N2CCN(c3cccc(C)c3C)CC2)cc1C(=O)O based on its MTC.
middle

====

- System: CHO-K1
- experiment-notes: Inhibition of spermidine uptake in chinese hamster CHO-K1 cells assessed as decrease in cell growth by measuring cellular ATP content measured after 48 hrs in presence of DFMO and spermidine by ATPlite assay
- details: Cricetulus griseus, CHO-K1, 48 h
experimental-endpoint: pEC50
Answers are plain numbers, as −log10 of the molar value.

Use the examples below as a reference point.
| molecule | recorded-value |
| --- | --- |
| COc1ccc(C(=O)Nc2ccc(N3CCN(c4cccc(C)c4)CC3)cc2C(=O)O)cc1 | 4.80 |
| Cc1ccc(C)c(N2CCN(c3ccc(N4C(=O)CC(c5ccccc5)C4=O)cc3[N+](=O)[O-])CC2)c1 (centres undefined) | 4.57 |

List the reported pEC50 of each molecule below.
1. COc1ccc(C(=O)Nc2ccc(N3CCN(c4cc(Cl)ccc4C)CC3)c(C(=O)O)c2)cc1
2. COc1ccc(C(=O)Nc2ccc(N3CCN(c4ccccc4OC)CC3)cc2C(=O)O)cc1

1. 5.30
2. 4.59

====

- experiment-notes: Cytotoxicity against human L3.6pl cells assessed as inhibition of cell growth measured after 72 hrs by ATPlite assay
- Format: toxicity, cell-based
experimental-endpoint: IC50 at 72 h

Use the examples below as a reference point.
| mol-smiles | recorded-value |
| --- | --- |
| COc1ccccc1C(=O)Nc1ccc(N2CCC(c3ccccc3)CC2)cc1C(=O)O | 46.3 µM |
| Cc1ccccc1CN1CCN(c2ccc(NC(=O)C(C)(C)C)cc2)CC1 | > 10 µM |
| COc1ccccc1C(=O)Nc1ccc(N2CCN(Cc3ccccc3)CC2)cc1C(=O)O | > 10 µM |
| COc1ccccc1C(=O)Nc1ccc(N2CCN(c3ccccn3)CC2)cc1C(=O)O | > 100 µM |

Kindly indicate its recorded IC50 at 72 h. Item: O=C(Nc1ccc(N2CCN(c3ccccn3)CC2)cc1C(=O)O)c1ccco1
> 50 µM

====

- Test system: CHO-K1
- experiment-notes: Cytotoxicity against chinese hamster CHO-K1 cells assessed as decrease in cell viability measured after 48 hrs by ATPlite assay
- Format: toxicity, cell-based, Cricetulus griseus
- details: cho-k1, 48 h
Would you mind telling me the reported MTC of each entry?

Use the examples below as a reference point.
| mol-smiles | MTC |
| --- | --- |
| COc1ccccc1C(=O)Nc1ccc(N2CCN(c3ccccn3)CC2)cc1 | 14 µM |
| COc1ccccc1N1CCN(c2ccc(NC(=O)c3ccccc3)cc2C(=O)O)CC1 | > 40 µM |
| COc1ccc(C(=O)Nc2ccc(N3CCN(c4ccc(OC)cc4)CC3)cc2C(=O)O)cc1 | > 40 µM |
| COc1ccccc1C(=O)Nc1ccc(N2CCN(c3ccccn3)CC2)cc1C(=O)O | 21 µM |
| COC(=O)c1cc(CN2CCN(c3ccccn3)CC2)ccc1NC(=O)c1ccccc1OC | > 20 µM |

List the reported MTC of each molecule below.
1. COc1ccc(C(=O)Nc2ccc(N3CCN(c4cc(Cl)ccc4C)CC3)cc2C(=O)O)c(OC)c1
2. COc1ccccc1C(=O)Nc1ccc(N2CCN(CCCc3ccccc3)CC2)cc1C(=O)O
3. COc1ccccc1C(=O)Nc1ccc(N2CCC(c3ccccc3)CC2)cc1C(=O)O
4. COC(=O)c1cc(N2CCN(c3cc(Cl)ccc3C)CC2)ccc1NC(=O)c1ccccc1OC
5. Cc1ccc(C)c(N2CCN(c3ccc(NC(=O)c4ccc(Cl)cc4)cc3C(=O)O)CC2)c1

> 40 µM
> 40 µM
> 40 µM
> 40 µM
> 40 µM

====

Would you mind telling me the reported MTC of each entry?
- Tested on: CHO-K1
- experiment-notes: Cytotoxicity against chinese hamster CHO-K1 cells assessed as decrease in cell viability measured after 48 hrs by ATPlite assay
- Type: toxicity, cell-based, Cricetulus griseus
- details: cho-k1, 48 h

| molecule | MTC |
| --- | --- |
| COc1ccc(C(=O)Nc2ccc(N3CCC(c4cccc(C)c4)C3)cc2C(=O)O)cc1 (stereo not given) | > 40 µM |
| COc1ccc(C(=O)Nc2ccc(N3CCN(C4CCCCC4)CC3)cc2C(=O)O)cc1 | > 40 µM |
| COc1ccc(C(=O)Nc2ccc(N3CCN(c4ccccc4F)CC3)cc2C(=O)O)cc1 | 25 µM |

List the reported MTC of each molecule below.
1. COc1ccccc1C(=O)Nc1ccc(N2CCN(Cc3ccccn3)CC2)cc1C(=O)O
2. COc1ccc(CC(=O)Nc2ccc(N3CCN(c4cc(Cl)ccc4C)CC3)cc2C(=O)O)cc1

1: > 40 µM; 2: 24 µM

====

Would you mind telling me the reported pEC50 of each entry?
- Tested on: CHO-K1
- experiment-notes: Inhibition of spermidine uptake in chinese hamster CHO-K1 cells assessed as decrease in cell growth by measuring cellular ATP content measured after 48 hrs in presence of DFMO and spermidine by ATPlite assay
- details: Cricetulus griseus, CHO-K1, 48 h
Give bare numbers, as −log10 of the molar value.

Use the examples below as a reference point.
| mol-smiles | pEC50 |
| --- | --- |
| COc1ccccc1C(=O)Nc1ccc(N2CCN(c3cc(Cl)ccc3C)CC2)cc1C(=O)O | 4.68 |
| COc1ccc(C(=O)Nc2ccc(N3CCN(c4ccccc4F)CC3)cc2C(=O)O)cc1 | 4.48 |

List the reported pEC50 of each molecule below.
1. COc1ccccc1C(=O)Nc1ccc(N2CCN(c3cccc(C)c3C)CC2)cc1C(=O)O
2. Cc1ccccc1CN1CCN(c2ccc(NC(=O)C(C)(C)C)cc2)CC1

1. 4.64
2. 5.70
